target: human muscarinic M3 receptor (Homo sapiens, UniProt P20309); test: Alphascreen Surefire phospho-ERK1/2 functional assay, M3; conditions: CHO, read-out: % Emax cf. ACh, M3, CHO cells stably expressing human M3; relative to ACh
Sequence (P20309 whole entry): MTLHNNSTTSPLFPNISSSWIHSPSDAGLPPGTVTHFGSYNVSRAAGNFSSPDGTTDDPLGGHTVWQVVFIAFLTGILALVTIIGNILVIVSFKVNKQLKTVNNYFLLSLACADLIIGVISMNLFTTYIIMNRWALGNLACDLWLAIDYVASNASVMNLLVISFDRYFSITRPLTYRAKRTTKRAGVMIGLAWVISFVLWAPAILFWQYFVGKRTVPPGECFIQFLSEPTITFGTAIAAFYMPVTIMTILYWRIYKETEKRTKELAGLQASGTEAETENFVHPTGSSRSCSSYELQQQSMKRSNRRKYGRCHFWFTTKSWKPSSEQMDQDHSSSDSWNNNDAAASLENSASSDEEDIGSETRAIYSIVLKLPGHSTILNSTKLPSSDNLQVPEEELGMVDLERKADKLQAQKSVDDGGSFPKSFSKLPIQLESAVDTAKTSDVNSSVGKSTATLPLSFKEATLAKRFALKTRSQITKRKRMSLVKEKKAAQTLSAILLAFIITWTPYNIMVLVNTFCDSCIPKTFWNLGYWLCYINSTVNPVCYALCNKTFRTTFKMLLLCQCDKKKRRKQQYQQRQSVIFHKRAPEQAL
The entries below are paired with their reported Emax.

{"compound": "CCOC(=O)N1CCC2(CC(N3CCC([C@@H]4CCCN4c4ccccc4)CC3)C2)C1 (single isomer, unassigned) [2-77 Isomer 2]", "Emax (%)": 47}
{"compound": "CCOC(=O)N1CCC2(CC(N3CCC([C@@H]4CCCN4C(=O)N4CCC4)CC3)C2)C1 (single isomer, unassigned) [2-27 Isomer 2]", "Emax (%)": 15}
{"compound": "CCOC(=O)N1CCC2(CC(N3CCC(N4CC(F)(F)C[C@@H]4C(=O)NC)CC3)C2)C1 (single isomer, unassigned) [2-88 Isomer 2]", "Emax (%)": 5}
{"compound": "CCOC(=O)N1CCC2(CC(N3CCC(N4CC(F)(F)C[C@@H]4CO)CC3)C2)C1 (single isomer, unassigned) [2-107 Isomer 2]", "Emax (%)": 48}
{"compound": "CCOC(=O)N1CCC2(CC(N3CCC([C@@H]4CCCN4C(=S)CC)CC3)C2)C1 (single isomer, unassigned) [2-58 Isomer 2]", "Emax (%)": 9}
{"compound": "CCOC(=O)N1CCC2(CC(N3CCC([C@@H]4CCCN4C(=O)CC)CC3)C2)C1 (single isomer, unassigned) [2-7 Isomer 2]", "Emax (%)": 27}
